Sourced from patent US20100184751A1

test_summary: General antimicrobial activity assay (whole-cell broth microdilution MIC, CLSI M7-A7)
Format: cell-based
Where a name gives a salt, the structure may show the parent alone.
value_kind: MIC

Solved cases (3 shown):
molecule=COc1cnc2ccc(=O)n3c2c1[C@](O)(CN1CCC(NCc2cc4c(cn2)OCCO4)CC1)C3 value_kind=MIC result="≤ 8 µg/mL"
molecule=O=c1[nH]c2ccccc2nc1CNC1CCN(C[C@]2(O)Cn3c(=O)ccc4ncc(F)c2c43)CC1 value_kind=MIC result="< 4 µg/mL"
molecule=CC(C)n1nnc2cc(CNC3CCN(C[C@]4(O)Cn5c(=O)ccc6ncc(F)c4c65)CC3)ccc21 value_kind=MIC result="≤ 8 µg/mL"

Qu. Look up MIC for this molecule: O=c1c(Cl)cc2ncc(F)c3c2n1CC3(O)CN1CCC(NCc2cc3c(cn2)OCCO3)CC1 (racemic) [Example 24, Dihydrochloride]
Ans. < 4 µg/mL

Qu. Param item: O=c1[nH]c(CNC2CCN(C[C@]3(O)Cn4c(=O)ccc5ncc(F)c3c54)CC2)nc2ccccc12
Ans. < 4 µg/mL
